- Measurement protocol: ATG_ERE_CIS: Attagene CIS-FACTORIAL HepG2 Assay for Estrogen Response Element (ERE) (AID 2282940)
- Conditions used: HepG2 ERE cis-reporter, Attagene RNA transcript; actives raise or lower the signal
Active and inactive are the calls of the source. Rule for the calls: active = hit-call score of the fitted dose curve at least 0.9, where 1 is the maximum; inactive = score below 0.9.
Output constraint: value belongs to T = active, F = inactive

Which outcome was assigned to `O=C(c1ccccc1)C1CCCCC1` in this test?
T

Which outcome was assigned to `COC(=O)c1ccccc1S(=O)(=O)NC(=O)Nc1nc(OC(F)F)cc(OC(F)F)n1` in this test?
F

Which outcome was assigned to `Cc1nn(C)c(Oc2ccccc2)c1C=NOCc1ccc(C(=O)OC(C)(C)C)cc1` in this test?
F

Which outcome was assigned to `CCOC(=O)NCCOc1ccc(Oc2ccccc2)cc1` in this test?
T

* * *

- Measurement protocol: BSK_3C_uPAR: BioMAP Diversity Plus: 3C Assay for Urokinase-type plasminogen activator receptor (uPAR) Biomarker Activity (AID 2282998)
- Conditions used: BioMAP 3C HUVEC, uPAR biomarker ELISA; actives raise or lower the signal
The source made the active and inactive calls. How the source made its calls: active means hit-call score of the fitted dose curve at least 0.9, where 1 is the maximum; inactive means score below 0.9.
Endpoint: AC50

Record excerpt, results attached:
C=CCOC(Cn1ccnc1)c1ccc(Cl)cc1Cl (centres undefined) : inactive
COC(=O)c1ccccc1C(=O)O : inactive
c1ccc2[nH]c(-c3cscn3)nc2c1 : inactive
CCOC(=O)NCCOc1ccc(Oc2ccccc2)cc1 : 30.4 µM (active)
COc1c(Cl)ccc(Cl)c1C(=O)O : inactive
CCCOC(=O)c1ccc(C(=O)OCCC)nc1 : inactive
CC(=O)[C@H]1CC[C@H]2[C@@H]3CCC4=CC(=O)CC[C@]4(C)[C@H]3CC[C@]12C : 5.32 µM (active)
C#CCOC(=O)[C@@H](C)Oc1ccc(Oc2ncc(Cl)cc2F)cc1 : inactive

// switching to the query compound
Tell me AC50 reported for CCCCC(CC)CN1C(=O)C2C3C=CC(C3)C2C1=O (centres undefined)
32.2 µM (active)

* * *

- Read-out: MYC, MYC (gene 4609)
- Measurement protocol: LTEA_HepaRG_MYC: Life Technologies and Expression Analysis (LTEA) Assay for MYC using HepaRG (AID 2283518)
- Conditions used: mRNA level, 48 h; actives raise or lower the signal
The source made the active and inactive calls. How the source made its calls: active means hit-call score of the fitted dose curve at least 0.9, where 1 is the maximum; inactive means score below 0.9.
Output constraint: value belongs to active, inactive

Which outcome was assigned to `CSC(=O)c1cccc2nnsc12` in this test?
inactive

Which outcome was assigned to CCCCCCC(C)OC(=O)COc1nc(F)c(Cl)c(N)c1Cl (configuration not stated) in this test?
inactive

Which outcome was assigned to `O=C(O)C1(C(=O)Nc2ccc(Cl)cc2Cl)CC1` in this test?
inactive

Which outcome was assigned to `CCCN(CCC)C(=O)SCC` in this test?
inactive

Which outcome was assigned to CCCCC(CC)COC(=O)c1ccccc1C(=O)O (configuration not stated) in this test?
inactive

Which outcome was assigned to `COC(=O)CSc1cc(N=c2sc(=O)n3n2CCCC3)c(F)cc1Cl` in this test?
inactive

Which outcome was assigned to `CC(=O)S[C@@H]1CC2=CC(=O)CC[C@]2(C)[C@H]2CC[C@@]3(C)[C@@H](CC[C@@]34CCC(=O)O4)[C@H]12` in this test?
inactive

Which outcome was assigned to `CN(C)C(=O)Nc1ccc(Cl)c(Cl)c1` in this test?
active

Which outcome was assigned to `O=C(Nc1ccc([N+](=O)[O-])cc1Cl)c1cc(Cl)ccc1O` in this test?
active

Which outcome was assigned to `C#CCOC(=O)[C@@H](C)Oc1ccc(Oc2ncc(Cl)cc2F)cc1` in this test?
inactive

Which outcome was assigned to `COc1c(Cl)ccc(Cl)c1C(=O)O` in this test?
inactive

Which outcome was assigned to `C[C@]12C[C@H](O)[C@H]3[C@@H](CCC4=CC(=O)CC[C@@]43C)[C@@H]1CC[C@@H]2C(=O)CO` in this test?
inactive

Which outcome was assigned to `CCCCOC(=O)[C@@H](C)Oc1ccc(Oc2ccc(C(F)(F)F)cn2)cc1` in this test?
inactive

Which outcome was assigned to `N[C@@H](Cc1cc(I)c(Oc2ccc(O)c(I)c2)c(I)c1)C(=O)O` in this test?
inactive

Which outcome was assigned to `CCN(Cc1c(F)cccc1Cl)c1c([N+](=O)[O-])cc(C(F)(F)F)cc1[N+](=O)[O-]` in this test?
active

Which outcome was assigned to `Cc1nn(C)c(Oc2ccccc2)c1C=NOCc1ccc(C(=O)OC(C)(C)C)cc1` in this test?
active

Which outcome was assigned to `CCNc1nc(N)nc(Cl)n1` in this test?
inactive

* * *

- Read-out: X-box binding protein 1 (XBP1), XBP1 (gene 7494)
- Measurement protocol: LTEA_HepaRG_XBP1: Life Technologies and Expression Analysis (LTEA) Assay for X-box binding protein 1 (XBP1) using HepaRG (AID 2283540)
- Conditions used: mRNA level, 48 h; actives raise or lower the signal
Active and inactive are the calls of the source. Rule for the calls: active = hit-call score of the fitted dose curve at least 0.9, where 1 is the maximum; inactive = score below 0.9.
Output constraint: value belongs to yes (active), no (inactive)

Which outcome was assigned to `CCN(Cc1c(F)cccc1Cl)c1c([N+](=O)[O-])cc(C(F)(F)F)cc1[N+](=O)[O-]` in this test?
no

Which outcome was assigned to `Oc1ccc(C(c2ccc(O)cc2)C(Cl)(Cl)Cl)cc1` in this test?
yes

Which outcome was assigned to `CCNc1nc(N)nc(Cl)n1` in this test?
no

Which outcome was assigned to `COC(=O)c1ccccc1C(=O)O` in this test?
no

* * *

- Read-out: Human Leukocyte Antigen - DR isotype (HLADR), HLA-DRA (gene 3122)
- Measurement protocol: BSK_CASM3C_HLADR: BioMAP Diversity Plus: CASM3C Assay for Human Leukocyte Antigen - DR isotype (HLADR) Biomarker Activity (AID 2283043);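 note: cell-surface HLA-DR protein level quantified by ELISA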
- Conditions used: primary human coronary artery smooth muscle cells; actives raise or lower the signal
Active and inactive are the calls of the source. How the source made its calls: active means hit-call score of the fitted dose curve at least 0.9, where 1 is the maximum; inactive means score below 0.9.
Output constraint: value belongs to active, inactive

Which outcome was assigned to `CCCCOCCOCCOCc1cc2c(cc1CCC)OCO2` in this test?
inactive

Which outcome was assigned to `COC(=O)c1c(Cl)nn(C)c1S(=O)(=O)NC(=O)Nc1nc(OC)cc(OC)n1` in this test?
inactive

Which outcome was assigned to `S=C([S-])NCCNC(=S)[S-].[Mn+2]` in this test?
inactive

Which outcome was assigned to `C[C@]12C[C@H](O)[C@H]3[C@@H](CCC4=CC(=O)CC[C@@]43C)[C@@H]1CC[C@@H]2C(=O)CO` in this test?
inactive

Which outcome was assigned to `CCOC(=O)[C@H](C)Oc1ccc(Oc2nc3ccc(Cl)cc3o2)cc1` in this test?
inactive

Which outcome was assigned to `Cc1nn(C)c(Oc2ccccc2)c1C=NOCc1ccc(C(=O)OC(C)(C)C)cc1` in this test?
inactive

Which outcome was assigned to `CCCOC(=O)c1ccc(C(=O)OCCC)nc1` in this test?
inactive

Which outcome was assigned to `COc1c(Cl)ccc(Cl)c1C(=O)O` in this test?
inactive

Which outcome was assigned to `COC(=O)CSc1cc(N=c2sc(=O)n3n2CCCC3)c(F)cc1Cl` in this test?
inactive

Which outcome was assigned to `OB(O)O` in this test?
inactive

Which outcome was assigned to `CSC(=O)c1cccc2nnsc12` in this test?
inactive

Which outcome was assigned to `CCN(Cc1c(F)cccc1Cl)c1c([N+](=O)[O-])cc(C(F)(F)F)cc1[N+](=O)[O-]` in this test?
inactive

Which outcome was assigned to `CC(=O)S[C@@H]1CC2=CC(=O)CC[C@]2(C)[C@H]2CC[C@@]3(C)[C@@H](CC[C@@]34CCC(=O)O4)[C@H]12` in this test?
active

Which outcome was assigned to `CCOC(=O)NCCOc1ccc(Oc2ccccc2)cc1` in this test?
inactive

Which outcome was assigned to `Oc1ccc(C(c2ccc(O)cc2)C(Cl)(Cl)Cl)cc1` in this test?
inactive

Which outcome was assigned to CCCCC(CC)COC(=O)c1ccccc1C(=O)O (stereo not drawn) in this test?
inactive

Which outcome was assigned to `COC(=O)c1ccccc1C(=O)O` in this test?
inactive

Which outcome was assigned to `CCSC(=O)N(CC(C)C)CC(C)C` in this test?
inactive

* * *

- Read-out: Peroxisomal acyl-coenzyme A oxidase 1 (ACOX1) gene, ACOX1 (gene 51)
- Measurement protocol: LTEA_HepaRG_ACOX1: Life Technologies and Expression Analysis (LTEA) Assay for Peroxisomal acyl-coenzyme A oxidase 1 (ACOX1) gene using HepaRG (AID 2283467)
- Conditions used: mRNA level, 48 h; actives raise or lower the signal
Activity calls are given as the source filed them. How the source made its calls: active means hit-call score of the fitted dose curve at least 0.9, where 1 is the maximum; inactive means score below 0.9.
Output constraint: value belongs to Yes (active), No (inactive)

Which outcome was assigned to `COC(=O)CSc1cc(N=c2sc(=O)n3n2CCCC3)c(F)cc1Cl` in this test?
No

Which outcome was assigned to C[C@]12CC[C@@H]3c4ccc(O)cc4C[C@@H](CCCCCCCCCS(=O)CCCC(F)(F)C(F)(F)F)[C@H]3[C@@H]1CC[C@@H]2O (stereo not given in full) in this test?
Yes

Which outcome was assigned to CCCCCCC(C)OC(=O)COc1nc(F)c(Cl)c(N)c1Cl (stereo not given) in this test?
No

Which outcome was assigned to `CCOC(=O)NCCOc1ccc(Oc2ccccc2)cc1` in this test?
No

Which outcome was assigned to `CC(=O)[C@H]1CC[C@H]2[C@@H]3CCC4=CC(=O)CC[C@]4(C)[C@H]3CC[C@]12C` in this test?
Yes

Hey, just so you know, these numbers are from PubChem BioAssay (EPA / NIEHS).
